# experimentalTarget: IRF5
# statedConditions: ASO, A-431, 0.03704 µM
After the bases stand the sugars from the 5' end (letter, count) and the backbone: PS all phosphorothioate, else s phosphorothioate and o phosphodiester by linkage. Methylation of C is not given here. e = 2'-O-(2-methoxyethyl) (MOE); k = constrained ethyl (cEt); d = 2'-deoxy (DNA); m = 2'-O-methyl
Decide using target mRNA inhibition: a value greater than or equal to 10% is Met, a smaller one is Not met.

Here are 3 sequences together with their reported answers.
{"monomerSequence": "TGTCTAGTGTCATGGA (sugars kkddkddddddeeekk, PS)", "assignedClass": "Not met"}
{"monomerSequence": "TCTGATATGATACCTA (sugars k3 d10 k3, PS)", "assignedClass": "Met"}
{"monomerSequence": "TGTCTAGTGTCATGGA (sugars kkdkdddddddeeekk, PS)", "assignedClass": "Not met"}

Below: the item to evaluate.
Does the reported target mRNA inhibition for TCTGAUATGATACCTA (sugars k3 d2 m1 d7 k3, PS) fall at or above the 10% mark?
Met

---

Parameter: target mRNA inhibition. Scope: all listed entries.
# experimentalTarget: IRF5
# statedConditions: ASO, KARPAS-229, 4 µM
After the bases stand the sugars from the 5' end (letter, count) and the backbone: PS all phosphorothioate, else s phosphorothioate and o phosphodiester by linkage. Methylation of C is not given here. e = 2'-O-(2-methoxyethyl) (MOE); k = constrained ethyl (cEt); d = 2'-deoxy (DNA)
The figure you give is taken to be in %; do not add the unit.

Solved cases below.
{"monomerSequence": "TGTCACATCTCCACAT (sugars kdddddddddkekeke, PS)", "experimentalTarget": "IRF5", "target mRNA inhibition (%)": 0}
{"monomerSequence": "TTGTCTAGTGTCATGG (sugars k3 d9 k3 e1, PS)", "experimentalTarget": "IRF5", "target mRNA inhibition (%)": 20}
{"monomerSequence": "CCTCATGAGTAATAGG (sugars k3 d10 k3, PS)", "experimentalTarget": "IRF5", "target mRNA inhibition (%)": 0}
{"monomerSequence": "GCTGTCACATCTCCAC (sugars kkkdddddddddkeke, PS)", "experimentalTarget": "IRF5", "target mRNA inhibition (%)": 3}
{"monomerSequence": "AATAGGAGTGAGACGA (sugars k3 d10 k3, PS)", "experimentalTarget": "IRF5", "target mRNA inhibition (%)": 25}
{"monomerSequence": "TGAGTCTCAAACCAGG (sugars k2 d9 e3 k2, PS)", "experimentalTarget": "IRF5", "target mRNA inhibition (%)": 0}
{"monomerSequence": "TGCACTGACACAGGCG (sugars kkdddddddddkekek, PS)", "experimentalTarget": "IRF5", "target mRNA inhibition (%)": 0}
{"monomerSequence": "TTCTTGGACTCTCAAG (sugars kdddddddddkekeke, PS)", "experimentalTarget": "IRF5", "target mRNA inhibition (%)": 0}

Looking up AGGAAGTGAGTCTCAA (sugars kkddddddddkekekk, PS) , I found its target mRNA inhibition recorded as 20

Looking up ATGAGTCATGGGCTGA (sugars kekddddddddkeekk, PS) , I found its target mRNA inhibition recorded as 0

Looking up TGTCTAGTGTCATGGA (sugars kkddddddddkekekk, PS) , I found its target mRNA inhibition recorded as 10

Looking up GGAGTGAGACGAGCAA (sugars kkddddddddddkeke, PS) , I found its target mRNA inhibition recorded as 33

Looking up ACCATTCTATGCCTTT (sugars kdddddddddkekeke, PS) , I found its target mRNA inhibition recorded as 10

Looking up GGTGTATTTCCCTGTC (sugars kkdddddddddkekek, PS) , I found its target mRNA inhibition recorded as 26

Looking up CTAAACCATTCTATGC (sugars k3 d10 k3, PS) , I found its target mRNA inhibition recorded as 0

---

# experimentalTarget: APOL1
# statedConditions: ASO, A431, 0.0625 µM
After the bases stand the sugars from the 5' end (letter, count) and the backbone: PS all phosphorothioate, else s phosphorothioate and o phosphodiester by linkage. Methylation of C is not given here. e = 2'-O-(2-methoxyethyl) (MOE); k = constrained ethyl (cEt); d = 2'-deoxy (DNA)
Parameter: target mRNA inhibition. Scope: all listed entries.
Please give the number followed by its unit.

Solved cases below.
{"monomerSequence": "CTCATTATCAGTCAGC (sugars k4 d9 k3, PS)", "target mRNA inhibition": "57%"}
{"monomerSequence": "AACTTTACCTCACCCT (sugars k4 d9 k3, PS)", "target mRNA inhibition": "35%"}

Looking up GCAAGGCTAAGTTCCG (sugars k4 d9 k3, PS) , I found its target mRNA inhibition recorded as 79%

Looking up TGTTATATTTGATCCT (sugars kkdddddkekeddddd, PS) , I found its target mRNA inhibition recorded as 59%

---

# experimentalTarget: MALAT1
# statedConditions: ASO, A431, 0.005 µM
After the bases stand the sugars from the 5' end (letter, count) and the backbone: PS all phosphorothioate, else s phosphorothioate and o phosphodiester by linkage. Methylation of C is not given here. k = constrained ethyl (cEt); d = 2'-deoxy (DNA)
Parameter: target mRNA inhibition. Scope: all listed entries.
The figure you give is taken to be in %; do not add the unit.

Solved cases below.
{"monomerSequence": "GCACGGGCTGTCTGCT (sugars k3 d10 k3, PS)", "measurementUnits": "%", "target mRNA inhibition": -12}
{"monomerSequence": "TCCTGAAAGTGCTCAC (sugars k3 d10 k3, PS)", "measurementUnits": "%", "target mRNA inhibition": -7}
{"monomerSequence": "TCCGTAACTTTAAATT (sugars k3 d10 k3, PS)", "measurementUnits": "%", "target mRNA inhibition": 36}
{"monomerSequence": "TCTCTTGAGGGACAGT (sugars k3 d10 k3, PS)", "measurementUnits": "%", "target mRNA inhibition": -7}
{"monomerSequence": "TCACTACTCCAAGCAT (sugars k3 d10 k3, PS)", "measurementUnits": "%", "target mRNA inhibition": 21}

Looking up GAGGGAGTTGAGGCAA (sugars k3 d10 k3, PS) , I found its target mRNA inhibition recorded as 24

Looking up ATCCCAACCGTAACAG (sugars k3 d10 k3, PS) , I found its target mRNA inhibition recorded as 13

Looking up TAATAGAGCTACTTAG (sugars k3 d10 k3, PS) , I found its target mRNA inhibition recorded as -16

Looking up CATTCCTTCGGATGCT (sugars k3 d10 k3, PS) , I found its target mRNA inhibition recorded as 38

Looking up GAAAACCCACTCTTGG (sugars k3 d10 k3, PS) , I found its target mRNA inhibition recorded as 10

Looking up TAGAGCTTCTCCATTT (sugars k3 d10 k3, PS) , I found its target mRNA inhibition recorded as -15

Looking up ATTACGCAACTGAGCC (sugars k3 d10 k3, PS) , I found its target mRNA inhibition recorded as 16

---

# experimentalTarget: MALAT1
# statedConditions: ASO, A431, 0.005 µM
After the bases stand the sugars from the 5' end (letter, count) and the backbone: PS all phosphorothioate, else s phosphorothioate and o phosphodiester by linkage. Methylation of C is not given here. k = constrained ethyl (cEt); d = 2'-deoxy (DNA)
measurementKind: target mRNA inhibition

Solved cases below.
{"monomerSequence": "CAGCTCGGGCGAGGCG (sugars k3 d10 k3, PS)", "measurementKind": "target mRNA inhibition", "valueReported": "13%"}
{"monomerSequence": "AGCTCTATACTTTGAA (sugars k3 d10 k3, PS)", "measurementKind": "target mRNA inhibition", "valueReported": "64%"}
{"monomerSequence": "TGGTTTTAATACCCTT (sugars k3 d10 k3, PS)", "measurementKind": "target mRNA inhibition", "valueReported": "11%"}
{"monomerSequence": "CGGACTTTCTCCCCCA (sugars k3 d10 k3, PS)", "measurementKind": "target mRNA inhibition", "valueReported": "-9%"}
{"monomerSequence": "CAAGCATTCCTTCGGA (sugars k3 d10 k3, PS)", "measurementKind": "target mRNA inhibition", "valueReported": "25%"}

Item CCACTTGATCCCAACT (sugars k3 d10 k3, PS) was tested on MALAT1; the reported target mRNA inhibition is 47%

Item TTCGGTTTAATCTCTT (sugars k3 d10 k3, PS) was tested on MALAT1; the reported target mRNA inhibition is 94%

---

# experimentalTarget: APOL1
# statedConditions: ASO, A431, 1 µM
After the bases stand the sugars from the 5' end (letter, count) and the backbone: PS all phosphorothioate, else s phosphorothioate and o phosphodiester by linkage. Methylation of C is not given here. e = 2'-O-(2-methoxyethyl) (MOE); k = constrained ethyl (cEt); d = 2'-deoxy (DNA)
Decide using target mRNA inhibition: a value greater than or equal to 90% is 1, a smaller one is -1.

{"monomerSequence": "ACTTTACATGCACGAT (sugars kkdddddddddekeke, PS)", "assignedClass": -1}
{"monomerSequence": "GATTCTGTGTGCTCAC (sugars k4 d9 k3, PS)", "assignedClass": -1}
{"monomerSequence": "GTAGAATGAGCAGGTC (sugars k4 d9 k3, PS)", "assignedClass": 1}

Does the reported target mRNA inhibition for TGGGTCAAAAGCGATG (sugars k4 d9 k3, PS) fall at or above the 90% mark?
-1

Does the reported target mRNA inhibition for GGAAATGAACGCAATG (sugars k4 d9 k3, PS) fall at or above the 90% mark?
-1

Does the reported target mRNA inhibition for AGGGAAATGAACGCAA (sugars k4 d9 k3, PS) fall at or above the 90% mark?
-1

Does the reported target mRNA inhibition for CTCATTATCAGTCAGC (sugars k4 d9 k3, PS) fall at or above the 90% mark?
-1

Does the reported target mRNA inhibition for CAGCTATGGAAATGCC (sugars k4 d9 k3, PS) fall at or above the 90% mark?
-1

Does the reported target mRNA inhibition for GCTAATTTTCTGACTG (sugars k3 d4 k3 e1 d5, PS) fall at or above the 90% mark?
-1

Does the reported target mRNA inhibition for CGCAATGCTGACTTGG (sugars kkdddddkekeddddd, PS) fall at or above the 90% mark?
1

Does the reported target mRNA inhibition for CAGTTTTGTAAGTGCA (sugars kkddddkdkdkddddd, PS) fall at or above the 90% mark?
1

Does the reported target mRNA inhibition for TATTTCTTGATGTGGT (sugars k3 d4 k3 e1 d5, PS) fall at or above the 90% mark?
1

Does the reported target mRNA inhibition for AGTTTTGTAAGTGCAA (sugars kkddddkdkdkddddd, PS) fall at or above the 90% mark?
-1

Does the reported target mRNA inhibition for TCATTAGTGCTATAGA (sugars k4 d9 k3, PS) fall at or above the 90% mark?
-1

Does the reported target mRNA inhibition for TCATAGATACTCCTCA (sugars k3 d10 k3, PS) fall at or above the 90% mark?
-1
